The following compounds are listed with their measured pEC50 values.
system: Human immunodeficiency virus 1; test: Effective concentration required to inhibit HIV-1/138K induced cytopathicity in human CEM cell line; assay type: functional, organism-based; details: Human immunodeficiency virus 1, CCRF-CEM
pEC50: −log10 of the molar value.

- MOLECULE_SMILES: "Cc1cn([C@@H]2O[C@H](CO[Si](C)(C)C(C)(C)C)[C@@]3(OS(=O)(=O)C=C3N)[C@H]2O[Si](C)(C)C(C)(C)C)c(=O)n(CCCCO)c1=O"
  ASSAY_SYSTEM: "Human immunodeficiency virus 1"
  MEASUREMENT_QUALIFIER: "≤"
  pEC50: 5.00
- MOLECULE_SMILES: "CNC(=O)Cn1c(=O)c(C)cn([C@@H]2O[C@H](CO[Si](C)(C)C(C)(C)C)[C@@]3(OS(=O)(=O)C=C3N)[C@H]2O[Si](C)(C)C(C)(C)C)c1=O"
  ASSAY_SYSTEM: "Human immunodeficiency virus 1"
  MEASUREMENT_QUALIFIER: "="
  pEC50: 5.46
- MOLECULE_SMILES: "Cc1cn([C@@H]2O[C@H](CO[Si](C)(C)C(C)(C)C)[C@@]3(OS(=O)(=O)C=C3N)[C@H]2O[Si](C)(C)C(C)(C)C)c(=O)n(CCCN(C)C)c1=O"
  ASSAY_SYSTEM: "Human immunodeficiency virus 1"
  MEASUREMENT_QUALIFIER: "<"
  pEC50: 5.00
- MOLECULE_SMILES: "Cc1cn([C@@H]2O[C@H](CO[Si](C)(C)C(C)(C)C)[C@@]3(OS(=O)(=O)C=C3N)[C@H]2O[Si](C)(C)C(C)(C)C)c(=O)n(CCCN2C(=O)c3ccccc3C2=O)c1=O"
  ASSAY_SYSTEM: "Human immunodeficiency virus 1"
  MEASUREMENT_QUALIFIER: "<"
  pEC50: 3.60
- MOLECULE_SMILES: "CCCCOC(=O)CN(CCCn1c(=O)c(C)cn([C@@H]2O[C@H](CO[Si](C)(C)C(C)(C)C)[C@@]3(OS(=O)(=O)C=C3N)[C@H]2O[Si](C)(C)C(C)(C)C)c1=O)CC(=O)OCCCC"
  ASSAY_SYSTEM: "Human immunodeficiency virus 1"
  MEASUREMENT_QUALIFIER: "<"
  pEC50: 3.60
- MOLECULE_SMILES: "Cc1cn([C@@H]2O[C@H](CO[Si](C)(C)C(C)(C)C)[C@@]3(OS(=O)(=O)C=C3N)[C@H]2O[Si](C)(C)C(C)(C)C)c(=O)n(C/C=C/CO)c1=O"
  ASSAY_SYSTEM: "Human immunodeficiency virus 1"
  MEASUREMENT_QUALIFIER: "="
  pEC50: 5.35
- MOLECULE_SMILES: "Cc1cn([C@@H]2O[C@H](CO[Si](C)(C)C(C)(C)C)[C@@]3(OS(=O)(=O)C=C3N)[C@H]2O[Si](C)(C)C(C)(C)C)c(=O)n(CCO)c1=O"
  ASSAY_SYSTEM: "Human immunodeficiency virus 1"
  MEASUREMENT_QUALIFIER: "="
  pEC50: 5.10

Cited source: ChEMBL document CHEMBL1141126
